Molecular target: T1, C5 peptide 45-124 fused to GST-tag (human, UniProt P01031 45-124)
T1 construct: not shown: GST-tag (glutathione S-transferase); vector and linker not restated
T1 sequence (P01031 45-124): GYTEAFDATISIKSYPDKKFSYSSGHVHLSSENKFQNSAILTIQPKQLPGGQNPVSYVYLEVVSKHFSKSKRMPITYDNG
Assay: summary drawing of the binding reactions to C5 beta-chain fragments

BINDER: CFA0599 (antibody, V domains shown, Chimeric, rabbit V regions; also called CFA0599-F760G4) VH: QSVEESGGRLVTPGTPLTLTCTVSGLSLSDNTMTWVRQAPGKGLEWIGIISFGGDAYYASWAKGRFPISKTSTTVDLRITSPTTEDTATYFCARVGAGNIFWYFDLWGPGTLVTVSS VL: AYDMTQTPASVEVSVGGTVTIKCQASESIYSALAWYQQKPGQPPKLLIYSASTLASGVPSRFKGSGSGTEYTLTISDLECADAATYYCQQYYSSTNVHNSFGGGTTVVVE
binding result: no binding
//
BINDER: CFA0675 (antibody, V domains shown, Chimeric, rabbit V regions; also called CFA0675-F760G4) VH: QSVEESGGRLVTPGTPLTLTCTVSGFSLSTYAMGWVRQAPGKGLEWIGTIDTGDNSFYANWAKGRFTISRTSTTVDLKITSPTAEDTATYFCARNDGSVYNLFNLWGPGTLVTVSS VL: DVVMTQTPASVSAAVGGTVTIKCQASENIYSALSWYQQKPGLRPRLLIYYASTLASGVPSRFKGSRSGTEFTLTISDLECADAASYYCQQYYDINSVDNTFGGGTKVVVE
binding result: no binding
//
BINDER: CFA0672 (antibody, V domains shown, Chimeric, rabbit V regions; also called CFA0672-F760G4) VH: QSVEESGGRLVTPGTPLTLTCTASGFSLSGNAINWVRQAPGKGLEWIGCIYTGSDTTYYATWAKGRFTISKTSTTVDLKIASPTTEDTATYFCARGSGLWGPGTLVTVSS VL: DVVMTQTPASVSAPVGGTVTIKCQASQNIYSLLAWYQQKPGQPPKLLIYHTSDLASGVPSRFRGSGSGTEFTLTISDLECADAATYYCQCTAYGSSDVGGTFGGGTTVVVE
binding result: no binding

// data source = patent US20180002415A1
